pIC50: −log10 of the molar value.
Hi, quick share: literature pIC50 data for MERTK (Homo sapiens, UniProt Q12866), several sources combined.

For orientation, consider the following solved cases.
>>> result("Cc1cc(-c2cc(F)ccc2Cl)ccc1C(=O)N1CC[C@@H](NC(=O)c2cc(-c3cnn(C)c3)cnc2N)C1")
"< 6.00"
>>> result("Cc1nnc(Cn2cc(-c3cc([C@H]4CC[C@H](O)CC4)n4nc(N[C@@H](C)COC(F)F)ncc34)cn2)o1")
"≥ 7.00"
>>> result("Cn1cc(-c2cnc(N)c(C(=O)N[C@@H]3CCN(C(=O)Oc4ccc5ccccc5c4)C3)c2)cn1")
"6.00 to 7.00"
>>> result("COc1cc(-c2c[nH]c3nc(Nc4ccc(CN5CCC(C)CC5)cc4)nc(OC)c23)ccc1OCc1ccccc1")
"< 6.00"
>>> result("COC[C@H](C)Nc1ncc2c(-c3cnn([C@@H]4CCNC4=O)c3)cc([C@H]3CC[C@H](O)CC3)n2n1")
"≥ 7.00"
>>> result("CC1CC(Nc2ncc3c(OC4CCNCC4)ncc([C@H]4CC[C@@H](O)CC4)c3n2)C1 (stereo partly shown)")
"≥ 7.00"

Give recorded pIC50 with MERTK (Homo sapiens, UniProt Q12866) for the following compound: CC[C@H](C)Nc1ncc2c(OC3CCOCC3)ncc([C@H]3CC[C@H](O)CC3)c2n1
≥ 7.00

---

Hi, quick share: literature IC50 data for MERTK (Homo sapiens, UniProt Q12866), several sources combined.

For orientation, consider the following solved cases.
>>> result("CCOc1ccn(Cc2ccccc2)c(=O)c1C(=O)Nc1ccc(Oc2ccnc3cc(OC)c4c(c23)OCCO4)c(F)c1")
"≤ 50 nM"
>>> result("Cn1cc(-c2cnc(N)c(C(=O)N[C@@H]3C[C@H](C(=O)O)N(C(=O)c4ccc(-c5ccc(F)cc5Cl)cc4)C3)c2)cn1")
"> 1000 nM"
>>> result("Cn1cc(-c2cnc(N)c(C(=O)N[C@@H]3CCN(C(=O)c4ccc(-c5cc(Cl)cc(Cl)c5)cc4)C3)c2)cn1")
"100 to 1000 nM"
>>> result("Cn1cc(-c2cnc(N)c(C(=O)N[C@@H]3CCN(C(=O)c4cccc(Oc5ccccc5)c4)C3)c2)cn1")
"> 1000 nM"
>>> result("COCCNCc1ccc(-c2n[nH]c3ncc(-c4ccc5c(c4)CCC(C)(N4CCC[C@H]4C)CC5)cc23)cc1 (stereo partly shown)")
"> 1000 nM"

Give recorded IC50 with MERTK (Homo sapiens, UniProt Q12866) for the following molecule: Nc1ncc(-c2cnn(C3CCN(C(=O)c4ccccc4)CC3)c2)cc1-c1nnc(-c2c(Cl)cccc2Cl)o1
< 500 nM

Give recorded IC50 with MERTK (Homo sapiens, UniProt Q12866) for the following molecule: Cc1cnc(-c2ccc(C(=O)N3CC[C@@H](NC(=O)c4cc(-c5cnn(C)c5)cnc4N)C3)cc2)s1
100 to 1000 nM

Give recorded IC50 with MERTK (Homo sapiens, UniProt Q12866) for the following molecule: COCC(C)Nc1ncc2c(-c3cnn(Cc4ccc(=O)n(C)c4)c3)cc(C3CCC(O)CC3)n2n1 (stereo not shown)
≤ 100 nM

Give recorded IC50 with MERTK (Homo sapiens, UniProt Q12866) for the following molecule: CC[C@H](C)Nc1ncc2c(OC3CCN(c4ncccn4)CC3)ncc([C@H]3CC[C@H](O)CC3)c2n1
≤ 100 nM

Give recorded IC50 with MERTK (Homo sapiens, UniProt Q12866) for the following molecule: Nc1ncc(-c2ccc(CO)cc2)cc1C(=O)N[C@@H]1CCN(C(=O)Oc2cccc(-c3ccccc3)c2)C1
100 to 1000 nM

Give recorded IC50 with MERTK (Homo sapiens, UniProt Q12866) for the following molecule: COC[C@H](C)Nc1ncc2c(-c3cnn(C(C)(C)C(=O)N4CCC(C)(O)C4)c3)cc([C@H]3CC[C@H](O)CC3)n2n1 (stereo partly shown)
≤ 100 nM

Give recorded IC50 with MERTK (Homo sapiens, UniProt Q12866) for the following molecule: O[C@H]1CC[C@H](c2cnc(OC3CCNCC3)c3cnc(N[C@@H]4CCCOC4)nc32)CC1
100 to 1000 nM

Give recorded IC50 with MERTK (Homo sapiens, UniProt Q12866) for the following molecule: CC(CC1COC1)Nc1ncc2c(-c3cnn(C4COC4)c3)cc([C@H]3CC[C@H](O)CC3)n2n1 (mixture of isomers)
1000 to 10000 nM
